# protocol notes: chemical genetic growth profiling, strain panel (AID 1159580);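 note: tested at 20 µM; growth read once vehicle control cultures reached saturation at 30 °C; 1 = growth at the plate median or of vehicle wells; lower values mean less growth of the strain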
# conditions used: S. cerevisiae deletion strains, growth OD, locus YNL233W, strain BNI4
Out of some 5,500 compounds screened, about 2,000 (36%) were called active. Not shown: some 18% with an inconclusive outcome. Cut-off read from the data, not from the text of the source: active = normalized growth mostly below about 0.91 (no sharp cut-off); inconclusive = no clear call, values can overlap the other calls; inactive = mostly above about 0.92. This is one part of the list.
The reply should be one of these categories: TRUE (active), FALSE (inactive)

Query: For C[N+](C)(C)CCOC(N)=O , which call appears in the assay record?
Reply: FALSE

---

# protocol notes: chemical genetic growth profiling, strain panel (AID 1159580);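 note: tested at 20 µM; growth read once vehicle control cultures reached saturation at 30 °C; 1 = growth at the plate median or of vehicle wells; lower values mean less growth of the strain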
# conditions used: S. cerevisiae deletion strains, growth OD, locus YLR357W, strain rsc2, stronger effect = lower value
Hit rate of the full screen: of about 5,500 compounds, about 2,000 (36%) were called active. About 18% were inconclusive and are not listed. Some of the results follow.
API: label(entry) gives yes (1) if the entry's normalized growth is strictly smaller than 1; on equality or larger values it gives no (0).

smiles string: COc1ccc2c(c1)O[C@@H]1COc3cc(OC)c(OC)cc3[C@@H]1C2=O
cat: yes (1)

Query: Input CC1(C)OC(=O)NC1=O ; condition: normalized growth strictly below 1. Does it hold?
Reply: no (0)
